test_summary: Plasma pharmacokinetics after multiple doses (cycle 2, steady state), LC-MS/MS
Format: in vivo, human
test_settings: human, plasma, oral, 3 mg, multiple dose, steady state; Schedule B (14 days on, 7 days off), 3.0 mg, n = 1; read-out: Tmax, median (range)
quantity: Tmax (h)
Write it as a number; the unit h goes unstated.

Which Tmax value is on record for Cc1nnn(C)c1-c1cnc2c3ccc(C(C)(C)O)cc3n([C@H](c3ccccc3)C3CCOCC3)c2c1 ?
1

* * *

test_summary: Plasma pharmacokinetics after single dose (C1D1), LC-MS/MS
Format: in vivo, human
test_settings: human, plasma, oral, 1.25 mg, cohort Schedule A, 1.25 mg, n = 3, read-out: Effective T1/2, mean (SD) (converted)
quantity: half-life (h)
Your answer should be a plain number; it is taken to be in h.

Quick one: half-life of Cc1nnn(C)c1-c1cnc2c3ccc(C(C)(C)O)cc3n([C@H](c3ccccc3)C3CCOCC3)c2c1 ?
48.7
